# Test System: p38 MAPK/MK2 (Homo sapiens, UniProt Q16539)
# Construct: Abcam (MK2) 04-152; 79910
# Test Description: In vitro activity assay of p38 MAPK/MK2 (Z-LYTE kinase assay kit)
# Condition Details: active p38α, inactive MK2, Ser/Thr 4; 1-hour reaction at 20° C.
Outcome Measure: IC50

Give IC50 only, for CNC(=O)C(C)(O)c1cccc(-c2cc(-n3c(C)cc(OCc4ncc(F)cc4F)c(Cl)c3=O)c(C)cn2)c1F (single isomer, unassigned) [Compound 121-P2] , using p38 MAPK/MK2 (Homo sapiens, UniProt Q16539) data. 2.83 nM

Quote p38 MAPK/MK2 (Homo sapiens, UniProt Q16539) IC50 for entry Cc1cnc(-c2cccc(C(=O)O)c2)cc1-n1c(C)cc(OCc2ncc(F)cc2F)c(Cl)c1=O . 58.6 nM

Specify the recorded IC50 for Cc1cnc(-c2cccc(C(C)(O)C(N)=O)c2F)cc1-n1c(C)cc(OCc2ncc(F)cc2F)c(Cl)c1=O (single isomer, unassigned) [Compound 126-P1] , system: p38 MAPK/MK2 (Homo sapiens, UniProt Q16539). 1.68 nM

Please report IC50 with p38 MAPK/MK2 (Homo sapiens, UniProt Q16539) for item Cc1cnc(-c2cccc(C(=O)NO)c2)cc1-n1c(C)cc(OCc2ncc(F)cc2F)c(Cl)c1=O . 90.3 nM

# return IC50 of Cc1cnc(-c2ccc3c(c2)C(C)(O)C(=O)N3)c(F)c1-n1c(C)cc(OCc2ncc(F)cc2F)c(Cl)c1=O (single isomer, unassigned) [Compound 115-P2] (system: p38 MAPK/MK2 (Homo sapiens, UniProt Q16539)) 0.7 nM

Identify measured IC50 obtained with p38 MAPK/MK2 (Homo sapiens, UniProt Q16539) for Cc1cnc(-c2cccc(C(=O)N(C)C)c2)c(F)c1-n1c(C)cc(OCc2ncc(F)cc2F)c(Cl)c1=O [Compound 32] . 3.65 nM

###

Assignment: determine reported pIC50 for the given molecules.
# Test System: p38 MAPK/ATF2 (Homo sapiens)
# Construct: Sino Biological (ATF2) 04-152; 11599-H20B
# Test Description: In vitro activity assay of p38 MAPK/ATF2 (HTRF)
# Condition Details: p38α, Human ATF2 Protein, ATP; 35 min at 20° C.
Scale for pIC50: -log10 of concentration given in mol/L; no unit attached.

Please report pIC50 for the following molecule: Cc1cnc(-c2cccc(C(=O)O)c2)c(F)c1-n1c(C)cc(OCc2ncc(F)cc2F)c(Cl)c1=O [Compound 29-P1] 5.94

Using the record for CNC(=O)c1cccc(-c2cc(-n3c(C)cc(OCc4ncc(F)cc4F)c(Cl)c3=O)c(C)cn2)c1 , state its measured pIC50. 4.99

###

# Test Description: Pharmacokinetic evaluation in mice
# Format: in vivo
# Condition Details: mouse, plasma, intravenous injection group 1 mg/kg, read-out: Area under curve AUC0-24 h
What AUC(0-t) was measured for each of the following?
Could you write the number and then its unit?

Give the measured AUC(0-t) for Cc1cnc(-c2cccc(C(N)=O)c2)c(F)c1-n1c(C)cc(OCc2ncc(F)cc2F)c(Cl)c1=O [Compound 30-P1] 1100 ng·h/mL

Recall and state the measured AUC(0-t) for CNC(=O)c1cccc(-c2ncc(C)c(-n3c(C)cc(OCc4ncc(F)cc4F)c(Cl)c3=O)c2F)c1 [Compound 31-P1] . 1360 ng·h/mL

Output AUC(0-t) of Cc1cnc(-c2cccc(C(=O)N(C)C)c2)c(F)c1-n1c(C)cc(OCc2ncc(F)cc2F)c(Cl)c1=O (single isomer, unassigned) [Compound 32-P1] 842 ng·h/mL

Hello, please tell me recorded AUC(0-t) for this one: Cc1cnc(-c2cccc(C(=O)O)c2)c(F)c1-n1c(C)cc(OCc2ncc(F)cc2F)c(Cl)c1=O [Compound 29-P1] 1390 ng·h/mL

Please look at this compound and report its AUC(0-t): Cc1cnc(-c2cccc(S(C)(=O)=O)c2)c(F)c1-n1c(C)cc(OCc2ncc(F)cc2F)c(Cl)c1=O [Compound 33-P1] 1580 ng·h/mL

###

# Test Description: Pharmacokinetic evaluation in mice
# Format: in vivo
# Condition Details: mouse, plasma, po, intragastric administration group 5 mg/kg, read-out: Maximum concentration Cmax
Outcome Measure: Cmax (ng/mL)
Report the figure in ng/mL without appending any unit label.

Hello, please tell me recorded Cmax for this one: Cc1cnc(-c2cccc(C(=O)O)c2)c(F)c1-n1c(C)cc(OCc2ncc(F)cc2F)c(Cl)c1=O [Compound 29-P1] 1380

Given Cc1cnc(-c2cccc(S(C)(=O)=O)c2)c(F)c1-n1c(C)cc(OCc2ncc(F)cc2F)c(Cl)c1=O [Compound 33-P1] , respond with its Cmax. 3670

Write down Cmax measured for item Cc1cnc(-c2cccc(C(=O)N(C)C)c2)c(F)c1-n1c(C)cc(OCc2ncc(F)cc2F)c(Cl)c1=O (single isomer, unassigned) [Compound 32-P1] 1610

Quickly give me recorded Cmax for CNC(=O)c1cccc(-c2ncc(C)c(-n3c(C)cc(OCc4ncc(F)cc4F)c(Cl)c3=O)c2F)c1 [Compound 31-P1] 979

Give the value of Cmax reported for the following: Cc1cnc(-c2cccc(C(N)=O)c2)c(F)c1-n1c(C)cc(OCc2ncc(F)cc2F)c(Cl)c1=O [Compound 30-P1] 1570

###

# Test System: p38 MAPK/MK2 (Homo sapiens)
# Construct: purchased Carna (p38α); Abcam (MK2) 04-152; 79910
# Test Description: In vitro activity assay of p38 MAPK/MK2 (Z-LYTE kinase assay kit)
# Format: biochemical
# Condition Details: active p38α, inactive MK2, Ser/Thr 4; 1-hour reaction at 20° C.
# Method: The inhibitory effect of the compound on p38 MAPK/MK2 was evaluated using the Z-LYTE kinase assay kit (Thermo, PV3177). The test compound was dissolved in DMSO to obtain a 10 mM stock solution and stored at −20° C. for future use. […] The reaction was terminated by adding 5 μL of stop buffer, and the plate was read using a microplate reader (Ex. 400 nm, Em. 445 nm; Ex. 400 nm, Em. 520 nm). […]
Outcome Measure: IC50 (nM)
Give the quantity in nM, number only.

Please look at this compound and report its IC50: Cc1cc(OCc2ncc(F)cc2F)c(Cl)c(=O)n1-c1ccnc(-c2ccc(F)c(C(C)(C)O)c2F)c1 [Compound 142] 3.37

Output measured IC50 for this item: CNC(=O)c1cccc(-c2cc(-n3c(C)cc(OCc4ncc(F)cc4F)c(Cl)c3=O)c(C)cn2)c1F (single isomer, unassigned) [Compound 20-P2] 0.27

Respond only with IC50 recorded for CNC(=O)c1cccc(-c2ncc(C)c(-n3c(C)cc(OCc4ncc(F)cc4F)c(Cl)c3=O)c2F)c1 [Compound 31-P1] 2.79

Determine from records and report IC50 for Cc1cnc(-c2cccc(S(C)(=O)=O)c2)c(F)c1-n1c(C)cc(OCc2ncc(F)cc2F)c(Cl)c1=O [Compound 33-P1] 0.056

Report IC50, nothing else, for this compound: Cc1cnc(-c2ccc(F)c(C(C)(O)C(N)=O)c2F)cc1-n1c(C)cc(OCc2ncc(F)cc2F)c(Cl)c1=O (single isomer, unassigned) [Compound 125-P1] 0.41

Identify measured IC50 associated with CNC(=O)c1cc(-c2cc(-n3c(C)cc(OCc4ncc(F)cc4F)c(Cl)c3=O)c(C)cn2)ccc1F [Compound 17] 87.9

###

# Test System: p38 MAPK/MK2 (Homo sapiens)
# Construct: Abcam (MK2) 04-152; 79910
# Test Description: In vitro activity assay of p38 MAPK/MK2 (Z-LYTE kinase assay kit)
# Condition Details: active p38α, inactive MK2, Ser/Thr 4; 1-hour reaction at 20° C.
Rule: IC50 below 8 nM gives T. Equal to or above 8 nM gives F.

Is IC50 strictly under 8 nM for the entry Cc1cnc(-c2cccc(C(N)=O)c2)cc1-n1c(C)cc(OCc2ncc(F)cc2F)c(Cl)c1=O ? F

Quick check: IC50 of Cc1cnc(-c2cccc([C@@](C)(O)CO)c2)cc1-n1c(C)cc(OCc2ncc(F)cc2F)c(Cl)c1=O [Compound 87-P1] under 8 nM? F

Would you kindly verify if IC50 of Cc1cnc(-c2cccc([C@](C)(O)CO)c2F)cc1-n1c(C)cc(OCc2ncc(F)cc2F)c(Cl)c1=O [Compound 35-P2] is strictly less than 8 nM? T

Please check: IC50 for Cc1cnc(-c2ccc(F)c(C(C)(O)C(N)=O)c2F)cc1-n1c(C)cc(OCc2ncc(F)cc2F)c(Cl)c1=O (single isomer, unassigned) [Compound 125-P3] , strictly under 8 nM or not? T

Criterion: IC50 strictly below 8 nM. Is it met by Cc1cc(OCc2ncc(F)cc2F)c(Cl)c(=O)n1-c1ccnc(-c2ccc(F)c([C@@](C)(O)CO)c2F)c1 ? F

###

# Test Description: In vitro liver microsome stability, rat
# Type: in vitro ADME
# Condition Details: liver microsomes, 0.5 mg/mL microsomes, 1 μM compound, NADPH, 37° C., read-out: Rat liver microsomes Half-life T1/2
Outcome Measure: half-life at 1 μM

Dear colleague, please send me the reported half-life at 1 μM for Cc1cnc(-c2cccc(C(=O)O)c2)cc1-n1c(C)cc(OCc2ncc(F)cc2F)c(Cl)c1=O when you can. > 4.66 h

Read the entry CNC(=O)c1cccc(-c2cc(-n3c(C)cc(OCc4ncc(F)cc4F)c(Cl)c3=O)c(C)cn2)c1 and write its reported half-life at 1 μM. 4.17 h

Report half-life at 1 μM for Cc1cnc(-c2ccc(F)c([C@@](C)(O)CO)c2F)cc1-n1c(C)cc(OCc2ncc(F)cc2F)c(Cl)c1=O (single isomer, unassigned) > 4.66 h

Give half-life at 1 μM for Cc1cc(OCc2ncc(F)cc2F)c(Cl)c(=O)n1-c1ccnc(-c2cccc(C(C)(C)O)c2F)c1 2.51 h

For Cc1cnc(-c2cccc(C(N)=O)c2)cc1-n1c(C)cc(OCc2ncc(F)cc2F)c(Cl)c1=O , write its half-life at 1 μM. > 4.66 h

Could you please provide reported half-life at 1 μM for Cc1cnc(-c2ccc(F)c(C(C)(C)O)c2F)cc1-n1c(C)cc(OCc2ncc(F)cc2F)c(Cl)c1=O [Compound 111-P2] ? Thanks! > 4.66 h

Answer with the recorded half-life at 1 μM for the molecule listed here: [2H]C([2H])(Oc1cc(C)n(-c2cc(-c3ccc(F)c([C@@](C)(O)CO)c3F)ncc2C)c(=O)c1Cl)c1ncc(F)cc1F [Compound 145-P1] > 4.66 h

The values you see were collected from patent US20260217652A1.
